Values were extracted from patent US11839214B2.

# Test system: Septoria tritici
# testSummary: Activity against leaf blotch on wheat caused by Septoria tritici (microtiterplate test)
# Assay type: cell-based
# measurementContext: single active, 0.063 ppm
propertyLabel: Observed efficacy (%)

>>> print(df.to_string())
                                   molecule      propertylabel  reportedmeasurement
0  CO/C=C(/C(=O)OC)c1ccccc1Oc1cc(Oc2ccccc2C#N)ncn1 [Azoxystrobin, azoxystrobin]  Observed efficacy                   26
1  CC1(C)CCC(Cc2ccc(Cl)cc2)C1(O)Cn1cncn1 (stereo not drawn) [Metconazol]  Observed efficacy                   30
2  CNC(=O)/C(=N/OC)c1ccccc1COc1cc(C)ccc1C [Dimoxystrobin, dimoxystrobin]  Observed efficacy                   27
3  COc1ccnc(C(=O)N[C@@H](C)C(=O)O[C@@H](C)C(c2ccc(F)cc2)c2ccc(F)cc2)c1OC(C)=O [Florylpicoxamid, florylpicoxamid]  Observed efficacy                   54
4  CC(C)c1ccc(Cl)cc1CN(C(=O)c1c(C(F)F)nn(C)c1F)C1CC1 [Isoflucypram, isoflucypram]  Observed efficacy                   72
5  Cn1cc(C(=O)Nc2ccccc2-c2cc(F)c(F)c(F)c2)c(C(F)F)n1 [Fluxapyroxad, fluxapyroxad]  Observed efficacy                   24

---

# Test system: Pyricularia oryzae
# testSummary: microbe, parasite or virus in culture
# Type: cell-based
# measurementContext: Pyricularia oryzae, 168 h, read-out: Observed efficacy
propertyLabel: inhibition of growth at 0.25 ppm (%)

>>> df
                                   compound                     propertylabel  resultunits  reportedmeasurement
0  O=C(Nc1ccccc1-c1ccc(Cl)cc1)c1cccnc1Cl [Boscalid, boscalid]  inhibition of growth at 0.25 ppm            %                    2
1  Cc1cc(C2=NC(C)(C)C(F)(F)c3ccccc32)cnc1C [Compound 1-1]  inhibition of growth at 0.25 ppm            %                   23
2  O=C(NCCc1ncc(C(F)(F)F)cc1Cl)c1ccccc1C(F)(F)F [Fluopyram, fluopyram]  inhibition of growth at 0.25 ppm            %                    7
3  COc1cc(C2=NC(C)(C)C(F)(F)c3ccccc32)cnc1C(F)F [Compound 1-4]  inhibition of growth at 0.25 ppm            %                   23
4  CC#Cc1cc(C)nc(Nc2ccccc2)n1 [Mepanipyrim, mepanipyrim]  inhibition of growth at 0.25 ppm            %                    3
5  OC(Cc1ccccc1Cl)(Cn1nc[nH]c1=S)C1(Cl)CC1 (stereo not drawn) [Prothioconazol, prothioconazole]  inhibition of growth at 0.25 ppm            %                   12
6  Cc1cc(C2=NC(C)(C)C(F)(F)c3ccccc32)cnc1C(F)F [Compound 1-2]  inhibition of growth at 0.25 ppm            %                   20
7  CC1COC(Cn2cncn2)(c2ccc(Oc3ccc(Cl)cc3)cc2Cl)O1 (stereo not drawn) [Difenoconazol, difenoconazole]  inhibition of growth at 0.25 ppm            %                   11
8  N#Cc1sc2c(=O)c3ccccc3c(=O)c=2sc1C#N [Dithianon, dithianon]  inhibition of growth at 0.25 ppm            %                   36
